assay_system: T1, ZFP SBS#373 (synthetic)
T1 chain: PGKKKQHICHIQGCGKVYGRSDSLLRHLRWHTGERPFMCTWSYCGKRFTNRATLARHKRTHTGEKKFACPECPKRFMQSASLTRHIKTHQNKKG
method: EMSA
details: tags: MBP fusion

binder: GTAGTTGTG (dsDNA) DNA 1: GTAGTTGTG DNA 2: CACAACTAC
unit_info: nM
Kd: 320
